Consider the following molecules; for each one, report its inhibition at 100 µM.
molecular target: AM2 S31 (wild-type serine at position 31 in the M2 protein), influenza virus A/Udorn/72 (Influenza A virus, UniProt P0DOF5); assay: cell-based; conditions: 100 uM; Xenopus oocytes; activity range class; read-out: S31 OOcyte Inhibition at 100 uM (%)
Sequence (P0DOF5 whole entry, looked up): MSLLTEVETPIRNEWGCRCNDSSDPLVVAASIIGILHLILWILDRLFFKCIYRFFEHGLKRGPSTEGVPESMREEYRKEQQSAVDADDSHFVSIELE

## Task Can you look up the measured inhibition at 100 µM of COc1ccc2cc(CNC34CC5CC(CC(C5)C3)C4)sc2c1 [Example 185a] for me?
## Result 0 to 30%

## Task Item under review: FC(F)(F)Oc1ccc(CNC23CC4CC(CC(C4)C2)C3)cc1 [Example 4a] . Reported inhibition at 100 µM?
## Result 0 to 30%

## Task Would you mind telling me what inhibition at 100 µM value was observed for c1ccc(C2=NOC(CNC34CC5CC(CC(C5)C3)C4)C2)cc1 (stereo not shown) [Example 167a] ?
## Result 0 to 30%

## Task Find the recorded inhibition at 100 µM belonging to COc1ccc(-c2cc(CNC34CC5CC(CC(C5)C3)C4)no2)cc1 [Example 110a] and report it.
## Result 0 to 30%

## Task For the molecule Cc1ncc(-c2ccc(CNC34CC5CC(CC(C5)C3)C4)s2)s1 [Example 154a] , what inhibition at 100 µM is on record?
## Result 0 to 30%

## Task Request the reported inhibition at 100 µM associated with Ic1ccc(CNC23CC4CC(CC(C4)C2)C3)s1 [Example 91a]
## Result 31 to 95%

## Task Please report the recorded inhibition at 100 µM for Cn1c(CNC23CC4CC(CC(C4)C2)C3)nc2ccccc21 [Example 180a] .
## Result 0 to 30%

## Task If you can, please state the reported inhibition at 100 µM value of c1coc(-c2ncc(CNC34CC5CC(CC(C5)C3)C4)cn2)c1 [Example 62a] .
## Result 0 to 30%

## Task Looking for the measured inhibition at 100 µM of FC(F)(F)c1ccc(CNC23CC4CC(CC(C4)C2)C3)cc1 [Example 5a] , can you help?
## Result 0 to 30%

## Task Endpoint output: inhibition at 100 µM of c1csc(-c2ccc(CNC34CC5CC(CC(C5)C3)C4)cc2)c1 [Example 29a, methanesulfonate] . Value?
## Result 0 to 30%

## Task Please report the recorded inhibition at 100 µM for CC(C)(C)c1cc(CNC23CC4CC(CC(C4)C2)C3)[nH]n1 [Example 101a] .
## Result 0 to 30%

## Task Suppose we examine the molecule Nc1ncc(CNC23CC4CC(CC(C4)C2)C3)s1 [Example 93a] ; what inhibition at 100 µM value has been reported?
## Result 31 to 95%

## Task Entry under review: c1ccc(-c2noc(CNC34CC5CC(CC(C5)C3)C4)n2)cc1 [Example 123a] . Reported inhibition at 100 µM?
## Result 0 to 30%

## Task I have this molecule here, CC(C)c1nc(CNC23CC4CC(CC(C4)C2)C3)no1 [Example 102a] , and I need its recorded inhibition at 100 µM.
## Result 0 to 30%

## Task If you can, please state the reported inhibition at 100 µM value of CCSc1ccc(CNC23CC4CC(CC(C4)C2)C3)cc1 [Example 12a, N-(4-(ethylthio)benzyl)adamantan-1-amine] .
## Result 0 to 30%

## Task Item c1cc(C2CCCCC2)ccc1CNC12CC3CC(CC(C3)C1)C2 [Example 10a] has what recorded inhibition at 100 µM?
## Result 0 to 30%

## Task Name the reported inhibition at 100 µM value associated with the molecule COc1ccc(CNC23CC4CC(CC(C4)C2)C3)s1 [Example 75a]
## Result 31 to 95%

## Task Which inhibition at 100 µM is listed for C[Si](C)(C)c1ccc(CNC23CC4CC(CC(O)(C4)C2)C3)cc1 [Example 193a] ?
## Result 0 to 30%

## Task Which inhibition at 100 µM is listed for Cn1c(CNC23CC4CC(CC(C4)C2)C3)cc2sccc21 [Example 172a] ?
## Result 0 to 30%
